Reported HDAC activity at 2 µM [%] values are given for each entry in this list.
Test system: HDAC homologues (HDACs), HeLa cell extract
Protocol text: Fluorimetric HDACs inhibition kit (Histone Deacetylase Activity Assay, HeLa cell extract)
Experimental parameters: remaining HDACs activity at 2 µM compound
Kindly answer with a numeric value in %, unit omitted.

Some solved entries appear below for comparison.
>  <Compound string>
CN1C(=O)c2cc(Br)ccc2N(CCCCCC(=O)NO)C(=O)c2ccccc21

>  <HDAC activity at 2 µM [%] [%]>
31.5

$$$$
>  <Compound string>
COc1cc2c(cc1OC)N(CCCCCC(=O)NO)C(=O)c1ccccc1N(C)C2=O

>  <HDAC activity at 2 µM [%] [%]>
35.9

$$$$
>  <Compound string>
O=C(CCCCCN1C(=O)c2ccccc2C=Cc2ccccc21)NO

>  <HDAC activity at 2 µM [%] [%]>
15.7

$$$$
>  <Compound string>
O=C(CCN1C(=O)c2ccccc2C=Cc2ccccc21)NO

>  <HDAC activity at 2 µM [%] [%]>
87.5

$$$$
>  <Compound string>
CN1C(=O)c2ccccc2N(CCCC(=O)NO)C(=O)c2ccccc21

>  <HDAC activity at 2 µM [%] [%]>
75.4

$$$$

--- query ---
Q) Can you look up the measured HDAC activity at 2 µM [%] of CN1C(=O)c2cc3ccccc3cc2N(CCCCCC(=O)NO)C(=O)c2cc(Cl)ccc21 for me?
A) 19.9

Hey, just so you know, these numbers are from paper PMC8470702.
